System: SK-MEL-2 melanoma
experiment.description: NCI tumour cell line growth inhibition, 48 h; in the data active = GI50 below about 0.43 µM; inactive = the rest
Labels: active, inactive

- compound: "Cc1cc(Nc2cc(N3CCN(C)CC3)nc(/C=C/c3ccccc3)n2)n[nH]1"
  group.label: "inactive"
- compound: "O=[N+]([O-])c1cc([N+](=O)[O-])c(Nn2c3ccccc3c3ccccc32)c([N+](=O)[O-])c1"
  group.label: "active"
- compound: "CCN(CC)CCCC(C)N/C(=C1\\C(=O)NC(=O)\\C1=C(/NC(C)CCCN(CC)CC)c1cccc(OC)c1)c1cccc(OC)c1 (centres undefined)"
  group.label: "inactive"
- compound: "O=C(O)C1[O][Sb][O]C(C(=O)O)C1O (centres undefined)"
  group.label: "inactive"
- compound: "COc1cc(C2c3cc4c(cc3C(OC(=O)C[n+]3ccccc3)C3COC(=O)C23)OCO4)cc(OC)c1OC (centres undefined)"
  group.label: "active"
- compound: "CCCCCCCC/C=C/CCCCCCCC1=NC(C)(C)CN1CCO"
  group.label: "inactive"
- compound: "CC(=O)N1N=C(c2ccc(Nc3nc(Nc4ccc(F)cc4)nc(Nc4ccc(F)cc4)n3)cc2)CC1c1ccc(N(C)C)cc1 (centres undefined)"
  group.label: "inactive"
- compound: "Cc1cc(C)c(-c2c(N)cc(Br)cc2Br)c(N)c1"
  group.label: "inactive"
- compound: "C=CCC(N[C@@H](CO)c1ccccc1)c1cn(C(=O)OCC)c2ccccc12 (some centres undefined)"
  group.label: "inactive"
